# protocol-description: Serum and CSF minocycline steady-state levels in SCI trial subjects
# settings: 200 mg twice-daily intravenously
measurement-name: CSF steady-state concentration (µg/mL)
State just the number; it will be interpreted in µg/mL.

Just so you know, measured CSF steady-state concentration for CN(C)c1ccc(O)c2c1C[C@H]1C[C@H]3[C@H](N(C)C)C(O)=C(C(N)=O)C(=O)[C@@]3(O)C(O)=C1C2=O [minocycline] came out at 1
